Measured AC50 on Histamine H3 receptor (Homo sapiens) follows.
Sequence (Q9Y5N1 whole entry): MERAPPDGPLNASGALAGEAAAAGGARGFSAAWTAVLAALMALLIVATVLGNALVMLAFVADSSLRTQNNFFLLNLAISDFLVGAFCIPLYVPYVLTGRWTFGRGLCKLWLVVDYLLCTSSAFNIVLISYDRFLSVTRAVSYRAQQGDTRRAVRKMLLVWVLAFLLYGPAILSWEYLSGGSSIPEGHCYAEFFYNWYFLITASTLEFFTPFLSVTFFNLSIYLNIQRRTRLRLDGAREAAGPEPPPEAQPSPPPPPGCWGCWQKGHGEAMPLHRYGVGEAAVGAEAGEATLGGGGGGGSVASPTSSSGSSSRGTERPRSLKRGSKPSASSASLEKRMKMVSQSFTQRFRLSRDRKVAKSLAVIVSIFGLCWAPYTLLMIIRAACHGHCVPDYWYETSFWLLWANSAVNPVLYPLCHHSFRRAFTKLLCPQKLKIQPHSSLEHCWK
MEASURED_ENDPOINT: AC50

MOLECULE	TGT	RESULT
N#Cc1ccccc1-c1cc(-c2ccccn2)cn(-c2ccccc2)c1=O	Histamine H3 receptor (Homo sapiens)	> 30 µM
COC(=O)[C@H](c1ccccc1Cl)N1CCc2sccc2C1	Histamine H3 receptor (Homo sapiens)	> 30 µM
O=C1Nc2ccc(Cl)cc2C(c2ccccc2)=NC1O (stereo not drawn)	Histamine H3 receptor (Homo sapiens)	> 10 µM

====

- TGT: Muscarinic acetylcholine receptor M2 (Homo sapiens, UniProt P08172)
- Sequence (P08172 whole entry): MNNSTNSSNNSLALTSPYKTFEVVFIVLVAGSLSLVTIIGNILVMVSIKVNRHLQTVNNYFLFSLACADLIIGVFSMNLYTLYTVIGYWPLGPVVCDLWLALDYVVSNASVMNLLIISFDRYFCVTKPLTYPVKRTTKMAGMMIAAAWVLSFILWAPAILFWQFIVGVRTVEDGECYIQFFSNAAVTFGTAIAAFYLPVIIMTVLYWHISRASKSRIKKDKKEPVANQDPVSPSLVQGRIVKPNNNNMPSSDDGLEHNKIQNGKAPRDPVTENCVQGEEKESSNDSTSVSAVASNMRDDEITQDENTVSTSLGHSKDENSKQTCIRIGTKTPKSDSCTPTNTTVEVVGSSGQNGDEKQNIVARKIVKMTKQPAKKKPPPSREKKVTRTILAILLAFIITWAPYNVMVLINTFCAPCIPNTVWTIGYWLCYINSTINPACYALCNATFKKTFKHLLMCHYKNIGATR
- Assay type: functional, cell-based
Below, each of the compounds is paired with its reported AC50 value.

COMPOUND	AC50
CO/N=C(\C(=O)N[C@@H]1C(=O)N2C(C(=O)O)=C(COC(N)=O)CS[C@H]12)c1ccco1 [CEFUROXIME]	> 30 µM
O=C(O)c1ccccc1OP(=O)(O)O [FOSFOSAL]	> 30 µM
O=C(O)c1ccccc1Nc1cccc(C(F)(F)F)c1 [FLUFENAMIC ACID]	> 10 µM
CCCCNc1ccc(C(=O)OCCN(C)C)cc1 [TETRACAINE]	> 10 µM
CS(=O)(=O)OCCCCOS(C)(=O)=O [BUSULFAN]	> 30 µM
CCCN(CC)C(CC)C(=O)Nc1c(C)cccc1C (stereo not given) [ETIDOCAINE]	> 30 µM
CC(CCc1ccccc1)NC(C)C(O)c1ccc(O)cc1 (stereo not given) [NYLIDRIN]	> 10 µM
O=C(O)c1cc(O)c2c3nc4ccccc4oc-3cc(=O)c2n1 [PIRENOXINE]	> 30 µM
C[C@H]1Oc2cc(cnc2N)-c2c(nn(C)c2C#N)CN(C)C(=O)c2ccc(F)cc21 [LORLATINIB]	> 30 µM
N#Cc1ccccc1-c1cc(-c2ccccn2)cn(-c2ccccc2)c1=O	> 30 µM
